Cited source: the supplement of paper PMC4466140

# target-or-system: AgBzz1-D1
# experiment-description: SPOT peptide array binding signal intensity (averaged, normalized) (arbitrary units (background-subtracted, floor 0; scale differs between SH3 domains)); higher = stronger binding of the SH3 domain to the peptide
Recorded SPOT peptide array binding signal intensity, one value per entry.
Number only, please.

Please review the following examples before continuing.
binder=RRSKSLPITPKSIFN obs_value=59
binder=MTKTPETSPPKRPMG obs_value=22
binder=TKHKAPPPPPPTAET obs_value=2000
binder=RKRAPTPPAPSRSEK obs_value=128
binder=NPLPKEPRLPKRKVA obs_value=48

// recorded SPOT peptide array binding signal intensity for "PVLPPPRSPNRPTLS" : 20

// recorded SPOT peptide array binding signal intensity for "QRKSLRRPTLSKPAV" : 40.5

// recorded SPOT peptide array binding signal intensity for "KTRLRPAFIQQLWSS" : 82.5

// recorded SPOT peptide array binding signal intensity for "TPRLSLPRLPNKHHW" : 12.5

// recorded SPOT peptide array binding signal intensity for "VQKRKLPLPGSIASA" : 47.8

// recorded SPOT peptide array binding signal intensity for "FPGKKSPRLPHRNKK" : 50

// recorded SPOT peptide array binding signal intensity for "KTKQQKPAIPQKKSF" : 73

// recorded SPOT peptide array binding signal intensity for "KRKRRLPVSEDTNTK" : 26.5
